System: EKVX
protocol_description: NCI tumour cell line growth inhibition, 48 h
The source made the active and inactive calls. No stated cut-off is given here; in the data, active = GI50 up to about 1.1 µM and inactive = higher.
recorded_metric: GI50

COc1cc2c(cc1OC)C/C(=N\O)c1cc(OC)c(OC)cc1/C=C\2	10.7 µM (inactive)

Kindly state the measured GI50 obtained for `CC(=O)O/N=C/c1c2ccccc2cc2ccccc12` with EKVX. 27.5 µM (inactive)

Form entry - test system: EKVX; read-out: GI50; compound: Cc1cc(Br)cc(C)c1NC(=O)C(=O)C(C(=O)c1ccncc1)C1OC(=O)c2ccccc21 (stereo not given) > 100 µM (inactive)

What is its GI50 for EKVX? Entry: `O=C(O)c1cc(Sc2ccc([N+](=O)[O-])c(C(=O)O)c2)ccc1[N+](=O)[O-]` > 100 µM (inactive)

Item `Cc1ccc(/C(=C\C(=O)C(=O)NC23CC4CC(CC(C4)C2)C3)Sc2ccccc2)cc1` with EKVX - GI50? > 10 µM (inactive)

# get_value(readout= GI50, system= EKVX) for CC(=O)/C(=C\c1ccc(Cl)c(Cl)c1)C(=O)C(C)CN(C)C (stereo not given) 14.2 µM (inactive)

Observed GI50 on EKVX for COc1ccc(N2C(=O)C3c4[nH]c5c(C)cccc5c4C4CCC(C(C)C)CC4C3C2=O)cc1 (stereo not given) , please. 16.7 µM (inactive)

What reported GI50 corresponds to `CC(C)c1cc(C(C)C)c(B(c2ccccc2)c2ccccc2)c(C(C)C)c1B(c1ccccc1)c1ccccc1` on EKVX? > 100 µM (inactive)

Param readout= GI50; system= EKVX; entry= `CCn1c(=O)c2c3cc(OC(C)=O)ccc3oc2c2ccc(OC(C)=O)cc21` ; returns value. 21 µM (inactive)

Form field - read-out: GI50; system: EKVX; submitted item: `CCOC(=O)CC1=Nc2ccccc2SC1` > 100 µM (inactive)

---

System: HOP-92
protocol_description: NCI tumour cell line growth inhibition, 48 h
Calls of active or inactive are those of the source. Rule as the data show it: active = GI50 up to about 1.1 µM and inactive = higher.
recorded_metric: GI50

# annotated cases, reported GI50 shown
COc1ccc(/C(Cl)=C(\C=O)c2ccc(Cl)c(Cl)c2)cc1	6.07 µM (inactive)
COc1cc(C=O)cc(/C=N/c2ccc(Br)cc2)c1O	3.53 µM (inactive)
CCCCCCC(=O)OC[n+]1ccc2c(C)c3[nH]c4ccccc4c3c(C)c2c1	3.18 µM (inactive)

# GI50 lookup, item `Clc1ccc(/C=C/c2nc(-c3ccc(Cl)cc3)cn3c2nc2ccccc23)cc1` > 100 µM (inactive)

Please report the recorded GI50 for COC(=O)c1c2c(cc3c1CC1(Cc4cc5c(c(C=O)c4C1)CCC5)C3)CCC2 (stereo unspecified) . 19.3 µM (inactive)

I would be grateful if you could share the reported GI50 for `NS(=O)(=O)c1ccc(NC(=O)c2cccc3c(=O)c4ccccc4[nH]c23)cc1` . > 100 µM (inactive)

Value lookup for GI50; key = `COc1ccc(CSC2=C(C#N)C(=O)NC3(CCCCC3)S2)cc1` > 55.7 µM (inactive)

Value lookup for GI50; key = `CCOC(=O)Nc1ccc(S(=O)(=O)I)cc1.CCOC(=O)Nc1ccc(S(=O)(=O)I)cc1.CN(C=O)C1=C(N(C)C=O)C(N(C)C=O)=C(N(C)C=O)C(=O)C1=O` > 100 µM (inactive)

Recorded GI50 for `COCN1COCN(C)C1=O` , please? > 100 µM (inactive)

Can you share its GI50? I mean this compound: CC1CCC2(OCCO2)[C@]2(C)CC(O)C(=O)C=C12 (stereo partly specified) > 100 µM (inactive)

Quick check: GI50 of `CCOC(=O)CC1=Nc2ccccc2SC1` ? > 100 µM (inactive)

What measured GI50 goes with `Cc1cc2c(cc1C(=O)CCC(=O)O)CC1(C2)Cc2cc(C)c(C(=O)CCC(=O)O)cc2C1` ? > 100 µM (inactive)

Fill in the blank: the reported GI50 of `CC(C)(CO[C@H]1C[C@H]2CC[C@@]1(C)C2(C)C)[N+](=O)[O-]` is ____. 14.6 µM (inactive)

What does the data say about its GI50? Entry: `CN1CCC2(CC1)/C(=N/C1CCCCC1)NC(=S)N2c1ccccc1` > 100 µM (inactive)

---

Tested on: NCI-H460
protocol_description: NCI tumour cell line growth inhibition, 48 h
Active and inactive are the calls of the source. No stated cut-off is given here; in the data, active = GI50 up to about 1.1 µM and inactive = higher.
Please reply with one of these outcomes: Y (active), N (inactive)

Check out these entries, answers already filled in.
O=C(O)c1cc(Sc2ccc([N+](=O)[O-])c(C(=O)O)c2)ccc1[N+](=O)[O-]	N
CC1=NNC(=O)C1C1CC(c2c[nH]c3ccccc23)=NNC1=S (centres undefined)	N
COC1(OC)C[C@H](C)[C@@]23O[C@]24C2=CC(=O)C=CC2=N[C@H]3C#C/C=C\C#C[C@]14O	Y
Cc1cc2c(cc1C)C(=O)C1(C2)Cc2c(C)ccc(C)c2C1=O (centres undefined)	N
COc1cc2c(cc1OC)C(=O)/C(=C/c1ccc(N(C)C)cc1)CC2	N

Turning to the following compound.
For `CCn1c(=O)c2c3cc(OC(C)=O)ccc3oc2c2ccc(OC(C)=O)cc21` , which call appears in the assay record? N

---

Tested on: Hs-578T
protocol_description: NCI tumour cell line growth inhibition, 48 h
Activity calls are given as the source filed them. No stated cut-off is given here; in the data, active = GI50 up to about 1.1 µM and inactive = higher.
recorded_metric: GI50

O=C1C2CCN(CC2)C1(CO)CO	31.3 µM (inactive)

May I ask what GI50 has been recorded for `O=C(C/C=C/c1ccccc1)c1ccccc1` ? 21.8 µM (inactive)

Quick one: GI50 of `Cc1cc2c(cc1C(=O)CCC(=O)O)CC1(C2)Cc2cc(C)c(C(=O)CCC(=O)O)cc2C1` ? > 100 µM (inactive)

So what does the record say about GI50 for `C/C(CC(O)(C(F)(F)F)C(F)(F)F)=N\NC(N)=O` ? > 10 µM (inactive)

// returns reported GI50 for input OCc1ccc2c(c1)CC1(Cc3ccc(/C=N/O)cc3C1)C2 (configuration not stated) 2.45 µM (inactive)

Given the molecule `O=C(O)c1cc(Sc2ccc([N+](=O)[O-])c(C(=O)O)c2)ccc1[N+](=O)[O-]` , what is its reported GI50? > 100 µM (inactive)

Given `O=C1c2ccccc2C(=O)c2c1c1cc(O)ccc1n2Cc1ccc(Cl)cc1Cl` , state its recorded GI50. 14 µM (inactive)

---

System: U-251
protocol_description: NCI tumour cell line growth inhibition, 48 h
Active and inactive are the calls of the source. Rule as the data show it: active = GI50 up to about 1.1 µM and inactive = higher.
Pick from 1 (yes) = active, 0 (no) = inactive when you respond.

Some solved cases for reference:
O=C1[C@H]2ON(c3ccccc3)C(c3ccccc3)[C@H]2C(=O)N1c1ccc(Cc2ccc(N3C(=O)[C@@H]4ON(c5ccccc5)C(c5ccccc5)[C@@H]4C3=O)cc2)cc1 (stereo not given in full)	0 (no)
CCCCS(=O)(=O)Nc1ccc(Nc2c3ccccc3nc3ccccc23)c(OC)c1	1 (yes)
C[C@H]1CC(=O)C[C@@H]2CC[C@@H]3[C@H](CC[C@]4(C)C(OC(=O)c5cccc6c(=O)c7ccccc7[nH]c56)CC[C@@H]34)[C@]21C (stereo not given in full)	0 (no)
CCCCCCOc1ccc(C(=O)N(C)O)cc1	0 (no)

Moving on to another compound below.
Outcome? `CC(C)(CO[C@H]1C[C@H]2CC[C@@]1(C)C2(C)C)[N+](=O)[O-]` 0 (no)

---

Test system: HT-29
protocol_description: NCI tumour cell line growth inhibition, 48 h
Activity calls are given as the source filed them. No stated cut-off is given here; in the data, active = GI50 up to about 1.1 µM and inactive = higher.
Response enum: label 1 = active, label 0 = inactive

These solved cases illustrate the format of a correct answer.
C=C(C)c1cc(C(C)(C)C)cc(C(=C)C)c1S(C)(=O)=O	label 0
C=COC(=O)N1C2CCCC(Cl)(C(C)=O)C1CC2 (centres undefined)	label 0
O=C(O)CSc1nc2ccccc2[nH]1	label 0

Hi, do you know how `CC(C)CC(=O)NC(Nc1ccc(S(=O)(=O)Nc2ncccn2)cc1)(C(F)(F)F)C(F)(F)F` came out in this test? label 0

Per the assay record, what outcome was assigned to O=C(CCN1CCN2c3ccccc3CCC2C1)c1ccc(F)cc1 (centres undefined) ? label 0

Field: outcome | Entry: `COc1cc(OC)c(OC)cc1/C=C\c1ccnc2ccccc12` label 1

---

Catalogue of molecules with associated GI50
Tested on: HCT-116
protocol_description: NCI tumour cell line growth inhibition, 48 h
Calls of active or inactive are those of the source. No stated cut-off is given here; in the data, active = GI50 up to about 1.1 µM and inactive = higher.

Answered examples (4):
C=CCSc1nnc2cc(CN3CCCC3)c(-c3ccc(Cl)cc3)nn12	14.5 µM (inactive)
C/C=C/c1c(O)c(=O)c2c(OC)cc(OC)c3c4c(OC)cc(OC)c5c(=O)c(O)c(/C=C/C)c(c1c23)c54	4.84 µM (inactive)
C=C1c2nc3ccccc3n2C=C(c2ccc(OC)cc2)N1c1ccc(OCCN2CCOCC2)cc1	21.9 µM (inactive)
O=C(O)CCC(NC(=O)c1ccc(Nc2nc3ccc(C(F)(F)F)cc3nc2C(=O)O)cc1)C(=O)O (centres undefined)	> 100 µM (inactive)

Recorded GI50 of `O=C(/C(=C\c1ccc(Cl)cc1)c1ccccc1)c1ccccc1` , please. 29.7 µM (inactive)

Suppose we examine the molecule `c1ccc(/N=C2\c3ccccc3CN2c2ccccc2)cc1` ; what GI50 value has been reported? > 100 µM (inactive)

Value lookup for GI50; key = `C[C@]12CC[C@H]3[C@@H](CCC4=C(Br)C(=O)C=C[C@@]43O)[C@@H]1CCC2=O` 26.4 µM (inactive)

# get_value(readout='GI50', item= `CN(C)CCCNC(=O)c1cc(NC(=O)c2cc(NS(=O)(=O)c3ccc4c(c3)C(=O)c3ccccc3C4=O)cn2C)cn1C` ) > 100 µM (inactive)

# input molecule: `O=C(Nc1ccc(F)cc1)c1cc2c(cc1Cl)Sc1nccn1S2(=O)=O` ; wanted: its GI50 35.6 µM (inactive)
